# Target entity: GLS1 (Homo sapiens (Human), UniProt O94925)
# Sequence (O94925 63-669): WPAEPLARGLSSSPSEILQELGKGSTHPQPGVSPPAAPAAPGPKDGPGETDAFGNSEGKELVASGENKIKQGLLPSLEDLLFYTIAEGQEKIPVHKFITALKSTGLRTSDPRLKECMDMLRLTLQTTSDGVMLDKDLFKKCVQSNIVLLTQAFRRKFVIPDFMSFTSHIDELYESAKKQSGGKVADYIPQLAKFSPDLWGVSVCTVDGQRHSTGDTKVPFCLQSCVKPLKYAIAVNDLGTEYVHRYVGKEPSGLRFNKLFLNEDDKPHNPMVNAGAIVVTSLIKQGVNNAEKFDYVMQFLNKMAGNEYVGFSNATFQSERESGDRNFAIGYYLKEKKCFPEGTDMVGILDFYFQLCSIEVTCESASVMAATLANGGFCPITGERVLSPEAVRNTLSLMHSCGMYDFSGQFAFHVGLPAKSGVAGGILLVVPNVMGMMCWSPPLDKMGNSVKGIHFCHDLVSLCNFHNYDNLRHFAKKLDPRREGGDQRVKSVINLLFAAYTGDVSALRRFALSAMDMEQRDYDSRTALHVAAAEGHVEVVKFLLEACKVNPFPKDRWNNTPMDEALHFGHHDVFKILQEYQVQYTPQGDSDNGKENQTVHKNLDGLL
Reported endpoint: IC50 (nM)
Record the value in nM, omitting the unit from your answer.

Worked examples follow.
CO[C@H](C(=O)Nc1nnc(N[C@@H]2CCN(c3nccnn3)C2)s1)c1cccc(OC(F)F)c1 [Example 6(a)]
85.1
COc1cc([C@H](OC)C(=O)Nc2nnc(N[C@@H]3CCN(c4cccnn4)C3)s2)ccc1F [Example 14(a)]
25.5
CO[C@@H](C(=O)Nc1nnc(N[C@@H]2CCN(c3cccnn3)C2)s1)c1cccc(OC(F)(F)F)c1 [Example 9(b)]
32.9
CO[C@H](C(=O)Nc1nnc(N[C@@H]2CCN(c3nccnn3)C2)s1)c1cccc(OC(F)F)c1 [19(a)]
85.1
CCO[C@@H](C(=O)Nc1nnc(N[C@@H]2CCN(c3cccnn3)C2)s1)c1ccc(F)c(OC)c1 [31(b)]
86.2

# context switch: different compound, same IC50
Q: Sample COc1cccc([C@H](OC)C(=O)Nc2nnc(N[C@@H]3CCN(c4nccnn4)C3)s2)c1 [Example 4(a)] — what was its IC50?
A: 35.5
